- study-system: ULK2 kinase (Homo sapiens)
- Construct: (residues 1-306 with N-terminal GST and His tag; ID NO: 2); purchased Signal Chem U02-11G
- Sequence (Q8IYT8 with tags, fused parts or gaps): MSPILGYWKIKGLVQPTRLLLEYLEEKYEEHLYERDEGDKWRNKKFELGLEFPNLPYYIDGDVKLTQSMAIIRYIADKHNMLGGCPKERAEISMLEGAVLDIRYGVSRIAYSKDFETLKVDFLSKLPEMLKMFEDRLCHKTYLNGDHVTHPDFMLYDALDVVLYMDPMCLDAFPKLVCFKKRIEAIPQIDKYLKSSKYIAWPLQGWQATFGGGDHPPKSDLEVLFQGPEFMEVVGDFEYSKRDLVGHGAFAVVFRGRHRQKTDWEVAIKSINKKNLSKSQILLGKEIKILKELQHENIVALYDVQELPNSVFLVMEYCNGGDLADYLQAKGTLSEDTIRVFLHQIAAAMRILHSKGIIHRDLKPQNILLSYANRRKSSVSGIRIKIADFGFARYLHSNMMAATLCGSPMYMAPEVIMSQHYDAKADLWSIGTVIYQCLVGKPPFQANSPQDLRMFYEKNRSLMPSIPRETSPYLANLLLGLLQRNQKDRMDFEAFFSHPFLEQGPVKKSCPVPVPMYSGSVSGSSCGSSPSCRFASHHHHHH
- assay: Biochemical assay for ULK2 (coupled pyruvate kinase/lactate dehydrogenase assay)
- condition-summary: 1 mM ATP, 1 nM ULK2; read-out: ULK2 (inhibition of biochemical activity), IC50
pIC50: −log10 of the molar value.
Measured pIC50 values are reported for all entries that follow.

Briefly, pIC50 measured for CC/C(Nc1ccc(N2CCN(C)CC2)c(F)c1)=C1/C(=O)Nc2ccc(C(=O)NCC(F)(F)F)cc21 : ≥ 8.00

pIC50 reported for this compound CC/C(Nc1cnn(CC(F)F)c1)=C1/C(=O)Nc2ccc(C(=O)NCC(C)(C)F)cc21 : 7.00 to 8.00

Item: CC/C(Nc1cnn(C)c1)=C1/C(=O)Nc2ccc(C(=O)NCC(F)(F)F)cc21 | pIC50: 7.00 to 8.00

CC/C(Nc1cnn(C(F)(F)F)c1)=C1/C(=O)Nc2ccc(C(=O)NCC(C)C)cc21 has a reported pIC50 of 7.00 to 8.00

* * *

- study-system: ULK1 kinase (Homo sapiens, UniProt O75385, E37A/K38A)
- Construct: (residues 1-283; ID NO: 1)
- Sequence (O75385 1-283 E37A/K38A): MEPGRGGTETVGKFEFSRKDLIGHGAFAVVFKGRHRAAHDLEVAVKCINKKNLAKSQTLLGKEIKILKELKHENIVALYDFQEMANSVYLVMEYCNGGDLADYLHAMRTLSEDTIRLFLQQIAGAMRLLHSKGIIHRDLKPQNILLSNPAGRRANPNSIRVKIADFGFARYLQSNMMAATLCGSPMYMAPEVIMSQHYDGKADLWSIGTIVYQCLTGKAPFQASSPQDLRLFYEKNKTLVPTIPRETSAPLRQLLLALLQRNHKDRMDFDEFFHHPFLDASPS
- assay: Biochemical assay for ULK1 (coupled pyruvate kinase/lactate dehydrogenase assay)
- condition-summary: 1 mM ATP, 0.1 nM ULK1; read-out: ULK1 (inhibition of biochemical activity), IC50
- Experimental: Biochemical Assay for ULK1 (SEQ. ID NO: 1) Activity of ULK1 kinase was determined spectroscopically using a coupled pyruvate kinase/lactate dehydrogenase assay that continuously monitors the ATP hydrolysis-dependent oxidation of NADH (e.g., Schindler et al. Science (2000) 289: 1938-1942). […] Inhibition of ULK1 was measured by adding serial diluted test compound (final assay concentration of 1% DMSO). […] The reaction rate was calculated using the 2-3 h time frame. […]
pIC50: −log10 of the molar value.
pIC50: recorded values

Use the examples below as a reference point.
• CC/C(Nc1ccc(N2CCN(C)CC2)nc1)=C1/C(=O)Nc2ccc(C(=O)NCC(F)(F)F)cc21 = 7.00 to 8.00
• CC/C(Nc1cnn(C(C)C)c1)=C1/C(=O)Nc2ncc(C(=O)NCC(F)(F)F)cc21 = 6.30 to 7.00
• CC/C(Nc1cnn([C@H]2CCOC2)c1)=C1/C(=O)Nc2ccc(C(=O)NCC(F)(F)F)cc21 = ≥ 8.00

Recorded result, CC/C(Nc1cnn(C(C)C)c1)=C1/C(=O)Nc2ccc(C(=O)NCC3CCC(C)(C)O3)cc21 (stereo not drawn) , pIC50: ≥ 8.00

CC/C(Nc1cnn(C2CCN(C(C)C)CC2)c1)=C1/C(=O)Nc2ccc(C(=O)NCC3CCO3)cc21 (stereo not drawn) yielded pIC50 of 7.00 to 8.00

The recorded pIC50 for CC/C(Nc1cnn(C2CCN(C3CCOCC3)CC2)c1)=C1/C(=O)Nc2ccc(C(=O)NCC(C)C)cc21 is ≥ 8.00

pIC50 recorded for this compound, CC/C(Nc1cnn(C2CCN(C3CCCCC3)CC2)c1)=C1/C(=O)Nc2ccc(C(=O)NCC(C)C)cc21 , is ≥ 8.00

Noted for CC/C(Nc1cnn(C2CCN(C(C)C)CC2)c1)=C1/C(=O)Nc2ccc(C(=O)N3CCOCC3)cc21 : its pIC50 reads < 6.30

Note to self: pIC50 recorded for CC/C(Nc1ccc(N2C[C@H]3CN(C)C[C@H]3C2)cc1)=C1/C(=O)Nc2ccc(C(=O)NCC(F)(F)F)cc21 was ≥ 8.00

CC/C(Nc1cnn(C2CCN(C(C)C)CC2)c1)=C1/C(=O)Nc2ccc(C(=O)NCC3CC3)cc21 yielded pIC50 of ≥ 8.00

response.value for CC/C(Nc1cn[nH]c1)=C1/C(=O)Nc2ccc(C(=O)NCC(F)(F)F)cc21 (field: pIC50) = 7.00 to 8.00

pIC50 for CC/C(Nc1cnn(C2CCN(C(C)C)CC2)c1)=C1/C(=O)Nc2ccc(C(=O)N3CCCO3)cc21 is 6.30 to 7.00

Documented pIC50 of CC/C(Nc1cnn(C2CC2)c1)=C1/C(=O)Nc2ccc(C(=O)NCC(F)(F)F)cc21 : 7.00 to 8.00

Kindly note the recorded pIC50 for CC/C(Nc1ncc(C)o1)=C1/C(=O)Nc2ccc(C(=O)NCC(F)(F)F)cc21 , which is 7.00 to 8.00

Noted for CC/C(Nc1ccc(N2CCN(C)CC2)cc1)=C1/C(=O)Nc2ccc(C(=O)NCCOC)cc21 : its pIC50 reads 7.00 to 8.00
